src = patent US5523223A

- Tested on: KERed from C. parapsilosis
- EXPERIMENTAL PROTOCOL: Inhibition study of the KERed (influence of metal cations and reagents)
- Format: biochemical, Candida parapsilosis
- CONDITION: compound 0.1 mM; 35 mM 5-oxohexanoic acid ethyl ester, 0.2 mM NADH, pH 7.9
- Text: For the following investigation, partially purified enzyme (after Q-sepharose chromatography, 67-times enrichment) was used. […] 5-oxohexanoic acid ethyl ester TEA-NaOH-buffer, 0.1 M; pH 7.9 The influence of various metal cations and reagents upon the enzymatic activity was investigated in tests in which the test preparation described under example 3.B was used.
// reported Residual Activity for each item listed
Field format: number, assumed %, no unit text.

A selection of reference data follows.
COMPOUND: CC(=O)C=O [Methylglyoxal]
TEST SYSTEM: KERed from C. parapsilosis
MEASURED NUMBER: 100

COMPOUND: O[C@@H](CS)[C@@H](O)CS (racemic) [1,4-Dithiothreitol]
TEST SYSTEM: KERed from C. parapsilosis
MEASURED NUMBER: 100

COMPOUND: N[C@@H](CCC(=O)N[C@@H](CS)C(=O)NCC(=O)O)C(=O)O [Glutathione (reduced), Glutathione]
TEST SYSTEM: KERed from C. parapsilosis
MEASURED NUMBER: 100

COMPOUND: CCN1C(=O)C=CC1=O [N-ethylmaleimide]
TEST SYSTEM: KERed from C. parapsilosis
MEASURED NUMBER: 70

COMPOUND: [Ni+2] [Ni^2+]
TEST SYSTEM: KERed from C. parapsilosis
MEASURED NUMBER: 10

# ---- query compound ----
Notebook entry, KERed from C. parapsilosis assay: Residual Activity of c1cnc2c(c1)ccc1cccnc12 [o-Phenanthroline] = ?
26
